Source of measurements: patent US9371374

- tgt: biotinylated HCV core peptide 141-161 (Peptide 2) (HCV-1)
- procedureText: EIA, captured mAb
observationType: Reactivity (OD492) (OD)

INSERT INTO results (binder, obsvalue) VALUES
  ('HCV 208A-293 (antibody, V domains shown) VH: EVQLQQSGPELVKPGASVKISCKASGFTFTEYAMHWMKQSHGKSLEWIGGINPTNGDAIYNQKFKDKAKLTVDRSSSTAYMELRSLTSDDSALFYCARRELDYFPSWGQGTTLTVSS VL: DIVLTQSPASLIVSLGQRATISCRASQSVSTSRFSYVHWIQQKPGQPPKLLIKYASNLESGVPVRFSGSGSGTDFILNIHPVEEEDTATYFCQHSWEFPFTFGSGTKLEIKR', 2.42),
  ('HCV 208B-911 (antibody, V domains shown) VH: QVHLQQPGAELVRPGVSVKLSCKASGYTFTTYSINWMKQRPGQGLEWIGNIYPSTSHTNYNQKFRDKATMTVDKSSSTAYMQLSSPTSEDSAVYYCTINAYSMDYWGQGTSVTVSS VL: QIVLTQSPEIMSASPGEKVTITCSASSSVSFMYWFQQKPGTSPKLWIYITSNLASGVPTRFSGSGSGTSYSLTISRMEAEDAATYYCQQRSSFPYTFGGGTKLEMKR', 0.09),
  ('HCV 208A-741 (antibody, V domains shown) VH: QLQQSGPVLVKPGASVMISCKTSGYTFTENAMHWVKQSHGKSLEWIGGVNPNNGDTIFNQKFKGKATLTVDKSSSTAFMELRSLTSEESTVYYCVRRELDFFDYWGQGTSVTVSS VL: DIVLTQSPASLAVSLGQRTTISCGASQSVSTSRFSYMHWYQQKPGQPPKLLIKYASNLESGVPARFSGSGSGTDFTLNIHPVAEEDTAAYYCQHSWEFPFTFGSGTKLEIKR', 3.37),
  ('HCV 208A-422 (antibody, V domains shown) VH: DVQLQESGPGLVNPSQSLSLTCSVTGYSITSGYYWIWIQQSPGNKLEWMGYIKYDGGNNYSPSLKNRISIARDTSKNQCFLKLNSVTIEDTATYYCTRGSDSFDYWGQGTTLTVSS VL: DIVLTQSPASLAVSLGQRAIISCKASQSVSFAGTNLMHWYQQKPGQQPKLLIYRASNLETGVPTRFSGSGSRTDFTLNIHPVEEDDAATYYCQQSREYYTFGGGTKLEIKR', 0.84),
  ('HCV 208B-251 (antibody, V domains shown) VH: QLQQSGPVLVKPGASVKISCKTSGYTFTENAMHWVKQSHGKSLEWIGGVNPNNGDTIYNQKFKGKATLTVDKSSSTAFMELRSLTSEESPVYFCVRRELDFFDYWGQGTSVTVSS VL: DIVLTQSPASLAVSLGKKATISCRASQSVSTSRYSYMHWYQQKPGHPPKLLIKYASNLESGVPARFSGSGSGTDFTLNIHPVAEEDTAAYYCQHSWEFPFTFGSGTKLEIKR', 2.35);
